tested on: SF-539; test: NCI 60 cell-line test; format: cell-based, human; conditions: SF-539 (CNS Cancer); read-out: G150
observedProperty: IC50 (µM)
Give just the numeric value; µM need not be written.

Specify reported IC50 for the molecule shown: CC1(C)C2CC[C@@]1(CS(=O)(=O)N(C1CCCCC1)C1CCCCC1)C(O)C2 (stereo partly shown)
54.6

* * *

system: CAKI-1; assay: NCI 60 cell-line test; type: cell-based, human; details: CAKI-1 (Renal Cancer); read-out: LC50 (the source's name)
observedProperty: CC50

Specify reported CC50 for the molecule shown: CC1(C)C2CC[C@@]1(CS(=O)(=O)N(C1CCCCC1)C1CCCCC1)C(O)C2 (stereo partly shown) [MT103]
> 100 µM
